B1: Osa-1-4 twister ribozyme (parent)
chain: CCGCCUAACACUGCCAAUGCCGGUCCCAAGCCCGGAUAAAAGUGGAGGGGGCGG

- Variants of: B1
- assayProcedure: self-cleavage, relative activity (ratio to wild type); higher = more cleavage; co-transcriptional
Record form. Attribute: self-cleavage. Fill in for each entry.

variantAnnotation: A39C C21A
self-cleavage: 0.22

variantAnnotation: G19U G53C
self-cleavage: 0.06

variantAnnotation: A41G G50C
self-cleavage: 0.77

variantAnnotation: A29G U37G
self-cleavage: 0.44

variantAnnotation: G49C U12A
self-cleavage: 0.08

// input: 6 variants below; output: self-cleavage for each
1. G50U U24C
2. C31U C52G
3. A16U A41G
4. A7C U24A
5. A7G C33A
6. G13U U37A

Ans:
1: 0.28; 2: 0.75; 3: 0.36; 4: 0.04; 5: 0.07; 6: 0.02

// input: 5 variants below; output: self-cleavage for each
1. C33U G22A
2. A38G U12C
3. A17U C14A
4. A29G C33G
5. G50C G53C

Ans:
1. 1.08
2. 0.42
3. 0.18
4. 0.15
5. 0.06

// input: 3 variants below; output: self-cleavage for each
1. C25A U24G
2. C26G C9U
3. A8U C32U

Ans:
[0.04, 0.04, 0.06]
